Reported IC50 or % Inhibition Factor Xa (30 µM), Human factor Xa (Homo sapiens, UniProt P00742).
The answer is to be given in %; state only the numeric part.

Below: 3 compounds and their reported IC50 or % Inhibition Factor Xa (30 µM).
N=C(N)NC/C=C\CNC(=O)Cn1c(-c2ccccc2)cnc(NCCc2ccccc2)c1=O: 0
N=C(N)c1ccc(CNC(=O)Cn2c(-c3ccc(Cl)cc3)c(Cl)nc(NCc3ccncc3)c2=O)cc1: 26
CC(C)CNc1nc(Cl)c(-c2cccc(N)c2)n(CC(=O)NCc2ccc(C(=N)N)cc2F)c1=O: 14

Query: For `N=C(N)c1ccc(CNC(=O)Cn2c(-c3ccccc3)c(Cl)nc(NCCN3CCOCC3)c2=O)cc1` , what is its reported IC50 or % Inhibition Factor Xa (30 µM)?
Response: 9

Query: For `N=C(N)c1ccc(CNC(=O)Cn2c(-c3ccccc3)c(Cl)nc(NCc3ccccn3)c2=O)cc1` , what is its reported IC50 or % Inhibition Factor Xa (30 µM)?
Response: 15

Query: For `Cc1cccc(Cl)c1CNc1nc(Cl)c(-c2ccccc2)n(CC(=O)NCc2ccc(C(=N)N)cc2)c1=O` , what is its reported IC50 or % Inhibition Factor Xa (30 µM)?
Response: 14

Query: For `N=C(N)c1ccc(CNC(=O)Cn2c(-c3ccccc3)c(Cl)nc(NCCc3ccc(Cl)cc3)c2=O)cc1` , what is its reported IC50 or % Inhibition Factor Xa (30 µM)?
Response: 45

Query: For `N=C(N)c1ccc(CNC(=O)Cn2c(-c3cccc(N)c3)c(Cl)nc(NCCCn3ccnc3)c2=O)cc1` , what is its reported IC50 or % Inhibition Factor Xa (30 µM)?
Response: 19

---

system_name: TF-VIIa (Homo sapiens, UniProt P08709)
Construct: 2nM recombinant human factor VIIa; purchased American Diagnostica, Greenwich CT; host or cells: soluble TF made in house in E. coli
Sequence (P08709 213-466 limits assumed): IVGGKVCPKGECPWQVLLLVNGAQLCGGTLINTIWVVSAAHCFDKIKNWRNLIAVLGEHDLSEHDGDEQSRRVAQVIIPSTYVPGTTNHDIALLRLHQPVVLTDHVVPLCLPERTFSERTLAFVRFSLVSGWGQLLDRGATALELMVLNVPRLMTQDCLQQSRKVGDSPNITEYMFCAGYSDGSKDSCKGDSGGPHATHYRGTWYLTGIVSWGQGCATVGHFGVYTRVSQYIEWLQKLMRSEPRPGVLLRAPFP
Sequence (P08709 61-212 limits assumed): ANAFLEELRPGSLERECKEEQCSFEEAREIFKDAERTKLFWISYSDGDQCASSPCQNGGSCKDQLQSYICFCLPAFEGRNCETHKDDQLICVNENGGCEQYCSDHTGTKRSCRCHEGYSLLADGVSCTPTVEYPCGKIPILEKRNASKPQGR
Sequence (P13726 33-251 partner limits assumed): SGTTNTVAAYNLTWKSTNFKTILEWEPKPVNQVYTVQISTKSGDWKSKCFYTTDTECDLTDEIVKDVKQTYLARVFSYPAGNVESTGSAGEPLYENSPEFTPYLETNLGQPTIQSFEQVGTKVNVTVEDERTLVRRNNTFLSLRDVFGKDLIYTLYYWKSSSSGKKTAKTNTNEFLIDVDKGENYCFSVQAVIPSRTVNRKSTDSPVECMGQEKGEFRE
experiment_summary: TF-VIIa Assay
Format: biochemical
run_parameters: 100 µM
readout_kind: % Inhibition TF-VIIa (100 µM) (%)
The answer is to be given in %; state only the numeric part.

Below: 5 molecules and their reported % Inhibition TF-VIIa (100 µM).
COc1ccc(-c2c(Cl)nc(NCCc3cccc(Cl)c3)c(=O)n2CC(=O)NCCc2ccncc2)cc1 [Example E-0035]: 4
O=C(Cn1c(-c2ccc(-c3ccccc3)cc2)c(Cl)nc(NCCc2ccc(Cl)cc2)c1=O)NCCc1ccncc1 [Example E-0052]: 0
O=C(Cn1c(-c2cccc(Cl)c2)c(Cl)nc(NCc2ccccc2)c1=O)NCCc1ccncc1 [Example E-0073]: 0
O=C(Cn1c(-c2ccc(-c3ccccc3)cc2)c(Cl)nc(NCCc2ccc(Cl)cc2)c1=O)NCCc1ccncc1 [Example E-0118]: 12
O=C(Cn1c(-c2cccc(Cl)c2)c(Cl)nc(NCc2ccccc2)c1=O)NCCc1ccncc1 [Example E-0085]: 0

Query: For O=C(Cn1c(-c2cccc(Cl)c2)c(Cl)nc(NCCc2ccc(Cl)cc2)c1=O)NCCc1cccnc1 [Example E-0083] , what is its reported % Inhibition TF-VIIa (100 µM)?
Response: 2

Query: For O=C(Cn1c(-c2ccc(Cl)cc2)c(Cl)nc(NCCc2cccc(Cl)c2)c1=O)NCCc1ccncc1 [Example E-0019] , what is its reported % Inhibition TF-VIIa (100 µM)?
Response: 0

Query: For COc1ccc(-c2c(Cl)nc(NCCc3ccc(Cl)cc3)c(=O)n2CC(=O)NCCc2ccncc2)cc1 [Example E-0036] , what is its reported % Inhibition TF-VIIa (100 µM)?
Response: 0

Query: For O=C(Cn1c(-c2ccc(Cl)cc2)c(Cl)nc(NCc2ccccc2)c1=O)NCCc1ccncc1 [Example E-0017] , what is its reported % Inhibition TF-VIIa (100 µM)?
Response: 0

Query: For O=C(Cn1c(-c2cccc(Cl)c2)c(Cl)nc(NCCc2cccc(Cl)c2)c1=O)NCCc1ccncc1 [Example E-0091] , what is its reported % Inhibition TF-VIIa (100 µM)?
Response: 1

Query: For COc1ccc(-c2c(Cl)nc(NCCc3ccc(Cl)cc3)c(=O)n2CC(=O)NCCc2ccncc2)cc1 [Example E-0106] , what is its reported % Inhibition TF-VIIa (100 µM)?
Response: 5

Query: For O=C(Cn1c(-c2ccc(Cl)cc2)c(Cl)nc(NCCc2ccccc2)c1=O)NCCc1ccncc1 [Example E-0026] , what is its reported % Inhibition TF-VIIa (100 µM)?
Response: 0

Query: For O=C(Cn1c(-c2ccc(-c3ccccc3)cc2)c(Cl)nc(NCc2ccccc2)c1=O)NCCc1ccncc1 [Example E-0109] , what is its reported % Inhibition TF-VIIa (100 µM)?
Response: 2

Query: For O=C(Cn1c(-c2cccc(Cl)c2)c(Cl)nc(NCCc2ccccc2)c1=O)NCCc1cccnc1 [Example E-0089] , what is its reported % Inhibition TF-VIIa (100 µM)?
Response: 3

Query: For O=C(Cn1c(-c2cccc(Cl)c2)c(Cl)nc(NCCc2cccc(Cl)c2)c1=O)NCCc1cccnc1 [Example E-0080] , what is its reported % Inhibition TF-VIIa (100 µM)?
Response: 1

Query: For O=C(Cn1c(-c2ccc(Cl)cc2)c(Cl)nc(NCCc2ccncc2)c1=O)NCCc1ccncc1 [Example E-0030] , what is its reported % Inhibition TF-VIIa (100 µM)?
Response: 0

Query: For O=C(Cn1c(-c2cccc(Cl)c2)c(Cl)nc(NCc2ccccc2)c1=O)NCCc1cccnc1 [Example E-0074] , what is its reported % Inhibition TF-VIIa (100 µM)?
Response: 0

Query: For O=C(Cn1c(-c2ccc(Cl)cc2)c(Cl)nc(NCCc2ccncc2)c1=O)NCCc1ccncc1 [Example E-0022] , what is its reported % Inhibition TF-VIIa (100 µM)?
Response: 0

---

Reported IC50 or % Inhibition Factor Xa (30 µM), Human factor Xa (Homo sapiens, UniProt P00742).
The answer is to be given in %; state only the numeric part.

Below: 6 molecules and their reported IC50 or % Inhibition Factor Xa (30 µM).
C[C@H](C(=O)NCc1ccc(C(=N)N)cc1)n1c(-c2ccccc2)c(Cl)nc(NCCc2ccccc2)c1=O [1517-17]: 0
N=C(N)c1ccc(CNC(=O)Cn2c(-c3cccc(N)c3)c(Cl)nc(NCCN3CCCC3)c2=O)cc1 [1543-03]: 34
N=C(N)c1ccc(CNC(=O)Cn2c(-c3ccccc3)c(Cl)nc(NCc3ccc(Cl)cc3)c2=O)cc1 [1507-46]: 8
N=C(N)c1ccc(CNC(=O)Cn2c(-c3ccccc3)c(Cl)nc(NC3CCCc4ccccc43)c2=O)cc1 (stereo not shown) [1507-16]: 18
N=C(N)c1ccc(CNC(=O)Cn2c(-c3ccc(-c4ccccc4)cc3)c(Cl)nc(NCc3ccncc3)c2=O)cc1 [1471-67]: 16
Cc1c(Cl)nc(NCCc2ccccc2)c(=O)n1CC(=O)NCc1ccc(C(=N)N)cc1 [1471-7]: 4

Query: For N=C(N)c1ccc(CNC(=O)Cn2c(-c3ccccc3)c(Cl)nc(NCc3c(F)cccc3F)c2=O)cc1 [1512-43] , what is its reported IC50 or % Inhibition Factor Xa (30 µM)?
Response: 9

---

system_name: TF-VIIa (Homo sapiens)
Construct: 2nM recombinant human factor VIIa; purchased American Diagnostica, Greenwich CT; host or cells: soluble TF made in house in E. coli
experiment_summary: TF-VIIa Assay
Format: biochemical
run_parameters: read-out: IC50 or % Inhibition TF-VIIa (30 µM); cells given as a plain number (IC50)
Measured IC50 values are reported for all entries that follow.
The answer is to be given in µM; state only the numeric part.

Below: 2 molecules and their reported IC50.
N=C(N)c1ccc(CNC(=O)Cn2c(-c3ccccc3)c(Cl)nc(NCCc3ccccn3)c2=O)cc1: 3.5
N=C(N)c1ccc(CNC(=O)Cn2c(-c3ccccc3)c(Cl)nc(NCc3ccccc3OC(F)(F)F)c2=O)cc1: 25

Query: For `N=C(N)c1ccc(CNC(=O)Cn2c(-c3ccc4c(c3)OCO4)c(Cl)nc(NCCc3ccncc3)c2=O)cc1` , what is its reported IC50?
Response: 13.2

Query: For `N=C(N)c1ccc(CNC(=O)Cn2c(-c3ccc(Cl)cc3)c(Cl)nc(NCc3ccccc3)c2=O)cc1` , what is its reported IC50?
Response: 11

---

system_name: TF-VIIa (Homo sapiens, UniProt P08709)
Construct: 2nM recombinant human factor VIIa; purchased American Diagnostica, Greenwich CT; host or cells: soluble TF made in house in E. coli
experiment_summary: TF-VIIa Assay
Format: biochemical
run_parameters: cells given as a plain number (IC50); read-out: IC50 or % Inhibition TF-VIIa (30 µM)
pIC50: −log10 of the molar value.
Assign y whenever pIC50 does not fall below 6; assign n whenever it does.

Below, 2 compounds whose answers are already recorded.
Nc1cccc(-c2c(Cl)nc(NC3CCC3)c(=O)n2CC(=O)NCc2ccc(C3=NCCN3)cc2)c1 [Example 27]: n
N=C(N)c1ccc(CNC(=O)Cn2c(-c3ccccc3)c(Cl)nc(NCCc3cccc(Cl)c3)c2=O)cc1 [1471-14]: y

Query: hey, is pIC50 for this one >= 6? N=C(N)c1ccc(CNC(=O)Cn2c(-c3ccccc3)c(Cl)nc(NC3CCCCCC3)c2=O)cc1 [1507-29]
Response: n

Query: hey, is pIC50 for this one >= 6? N=C(N)NCCCC(NC(=O)Cn1c(-c2cccc(N)c2)c(Cl)nc(NCc2ccccc2)c1=O)C(=O)c1nccs1 (stereo not shown) [compound 91]
Response: y

Data provenance: patent EP1202975B1
